All figures here come from ChEMBL document CHEMBL3046950.

The entries below are paired with their reported RatioLC50.
Test system: Aphis gossypii
Assay type: functional
attribute-measured: RatioLC50

[[record]]
compound = "CCCCN(CCCC)SN(C)C(=O)Oc1cccc2c1OC(C)(C)C2 [CARBOSULFAN]"
target = "Aphis gossypii"
attribute_measured = "RatioLC50"
experimental_value = 0.5

[[record]]
compound = "CC1(C)C(C=C(Cl)Cl)C1C(=O)OC(C#N)c1cccc(Oc2ccccc2)c1 (stereo not drawn) [ALPHA-CYPERMETHRIN]"
target = "Aphis gossypii"
attribute_measured = "RatioLC50"
experimental_value = 0.5

[[record]]
compound = "C/C(=N\\C#N)N(C)Cc1ccc(Cl)nc1"
target = "Aphis gossypii"
attribute_measured = "RatioLC50"
experimental_value = 1

[[record]]
compound = "CCCSP(=O)(OCC)Oc1ccc(Br)cc1Cl (centres undefined) [PROFENOFOS]"
target = "Aphis gossypii"
attribute_measured = "RatioLC50"
experimental_value = 0.4

